# pIC50 listing for each entry below
System: 15-PGDH (Homo sapiens)
Sequence (P15428 whole entry): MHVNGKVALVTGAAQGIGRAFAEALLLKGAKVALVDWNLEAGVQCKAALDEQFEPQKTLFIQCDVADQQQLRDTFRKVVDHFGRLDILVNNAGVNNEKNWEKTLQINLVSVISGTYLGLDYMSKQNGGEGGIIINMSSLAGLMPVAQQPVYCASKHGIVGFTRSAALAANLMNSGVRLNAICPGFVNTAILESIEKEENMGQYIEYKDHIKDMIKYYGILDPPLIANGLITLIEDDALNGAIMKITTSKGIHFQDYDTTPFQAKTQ
Method Notes: Detection of activity of 15-PGDH kinase (enzyme inhibition, fluorescence slope)
Details: inhibitory activity against 15-PGDH enzyme; substrates PGF2α and β-NAD; fluorescence Ex/Em=340/450
pIC50: −log10 of the molar value.

# count of solved cases: 8
Documented pIC50 of CC(C)(C)[S+]([O-])c1sc2nc(-c3ccccc3)n3ccnc3c2c1N (stereo not drawn) [Example 26] : 7.82 to 8.00

Consider CCCC[S+]([O-])c1sc2nc(-c3ccccc3)n3cc(C)nc3c2c1N (stereo not drawn) [Example 5] . Its measured pIC50 is > 8.82

Looking up CCCC[S+]([O-])c1sc2nc(-c3cnn(C)c3)n3ccnc3c2c1N (stereo not drawn) [Example 15] , I see its pIC50 listed as 8.40 to 8.82

So for CCCC[S+]([O-])c1sc2nc(-c3ncccn3)n3ccnc3c2c1N (stereo not drawn) [Example 12] , the logged pIC50 turned out to be 8.40 to 8.82

Field pIC50 (entry CCCC[S+]([O-])c1sc2nc(-c3ccccc3)n3cnnc3c2c1N (stereo not drawn) [Example 18] ) reads 7.82 to 8.00

Summary for this molecule, CCCC[S+]([O-])c1sc2nc(-c3ccccc3)n3cc(C(F)(F)F)nc3c2c1N (stereo not drawn) [Example 6] : pIC50 is 8.00 to 8.40

Item: CCC(C)C[S+]([O-])c1sc2nc(-c3ccccc3)n3ccnc3c2c1N (stereo not drawn) [Example 24] | pIC50: 8.00 to 8.40

Briefly, pIC50 measured for CC(C)C[S+]([O-])c1sc2nc(-c3ccccc3)n3ccnc3c2c1N (stereo not drawn) [Example 25] : < 7.52

***
The reported value for Nc1c([S+]([O-])C2COC2)sc2nc(-c3ccccc3)n3ccnc3c12 (stereo not drawn) [Example 9] in terms of pIC50 is 7.82 to 8.00

So for CCCC[S+]([O-])c1sc2nc(-c3ccc(C(=O)O)cc3)n3ccnc3c2c1N (stereo not drawn) [Example 22] , the logged pIC50 turned out to be 8.40 to 8.82

# molecule CCCC[S+]([O-])c1sc2nc(-c3nccs3)n3ccnc3c2c1N (stereo not drawn) [Example 11] ; its pIC50 = 8.40 to 8.82

// pIC50 lookup, molecule = CCCC[S+]([O-])c1sc2nc(-c3ccccc3)n3c(C)nnc3c2c1N (stereo not drawn) [Example 4] , result: 8.00 to 8.40

Value of measured pIC50 for the entry Nc1c([S+]([O-])C2CCCC2)sc2nc(-c3ccccc3)n3ccnc3c12 (stereo not drawn) [Example 7] : 8.00 to 8.40

Kindly note the recorded pIC50 for CCCC[S+]([O-])c1sc2nc(-c3ccccc3)n3c(C)cnc3c2c1N (stereo not drawn) [Example 19] , which is 8.40 to 8.82

Sure, the documented pIC50 for CCCC[S+]([O-])c1sc2nc(-c3ccccc3)n3ccnc3c2c1C (stereo not drawn) [Example 20] is 7.52 to 7.82
